Reference source: patent US7803801B2

Documented pIC50 across a set of compounds
- TESTED ON: GST-Syk Full Protein (human) (Homo sapiens)
- EXPERIMENT SUMMARY: Syk kinase inhibition test (HTRF method)
- Type: biochemical
- CONDITION INFO: Tables 2-x, thiophene compounds B; read-out: sykHTRK ave IC50
pIC50: −log10 of the molar value.

Examples with their reported pIC50 follow.
1. CO/N=C(\C)c1ccc(-c2cccc(Nc3cc(N(C)C)ncn3)n2)s1 [Compound B-32] :: < 6.00
2. Cc1ccnc(Nc2cccc(-c3ccc(C(=O)NCC(=O)O)s3)n2)c1 [Compound B-99] :: 6.00 to 7.00
3. CCC(=O)c1ccc(-c2cccc(Nc3cc(C)ccn3)n2)s1 [Compound B-48] :: 6.00 to 7.00
4. Cc1ccnc(Nc2cccc(-c3ccc(C(=O)NCCO)s3)n2)c1 [Compound B-24] :: 6.00 to 7.00
5. COCCO/N=C(\C)c1ccc(-c2cccc(Nc3cc(C)ccn3)n2)s1 [Compound B-46] :: 6.00 to 7.00

Item COc1ccnc(Nc2cccc(-c3ccc(C(C)=O)s3)n2)c1 [Compound B-17] has what recorded pIC50?
> 7.00

Request: Cc1ccnc(Nc2cccc(-c3ccc(CNCc4ccc(C(=O)O)cc4)s3)n2)c1 [Compound B-116]
> 7.00

Request: CC(=O)c1ccc(-c2cccc(N(C(C)=O)c3cc(C)ccn3)n2)s1 [Compound B-89]
< 6.00

Request: Cc1ccnc(Nc2cccc(-c3ccc(C(=O)N(C)C)s3)n2)c1 [Compound B-22]
6.00 to 7.00

Request: Cc1ccnc(Nc2cccc(-c3ccc(C(=O)N4CCC[C@H]4CO)s3)n2)c1 [Compound B-80]
6.00 to 7.00
